Measured Dose.FC.CTG, listed per entry.
- System: ENR+CD organoids
- assay overview: Primary screen: ATP (CellTiter-Glo 3D, CTG) cell number/viability, 2.5-D 384-well ENR+CD organoids;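 note: compounds given at plating and again on day 3 over a 6-day differentiation from ENR+CV stem-cell-enriched precursors, ATP measured on day 6, plate median as control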
- assay setup: primary screen, dose 10.00 uM
property: Dose.FC.CTG (log2 fold change)

>>> recorded_measurement("CNC(=O)c1ccc(N2C(=S)N(c3ccc(C#N)c(C(F)(F)F)c3)C(=O)C2(C)C)cc1F [Enzalutamide (MDV3100)]")
0.146
>>> recorded_measurement("Cc1ccc(NC(=O)C2(c3ccc4c(c3)OC(F)(F)O4)CC2)nc1-c1cccc(C(=O)O)c1")
0.032
>>> recorded_measurement("CO[C@H]1C[C@@H]2CC[C@@H](C)[C@@](O)(O2)C(=O)C(=O)N2CCCC[C@H]2C(=O)O[C@H]([C@H](C)C[C@@H]2CC[C@@H](OC(=O)C(C)(CO)CO)[C@H](OC)C2)CC(=O)[C@H](C)/C=C(\\C)[C@@H](O)[C@@H](OC)C(=O)[C@H](C)C[C@H](C)/C=C/C=C/C=C/1C")
0.200
>>> recorded_measurement("C=C1C(=O)O[C@@H]2/C=C(\\C)CC/C=C(\\C)CC[C@@H]12 [Costunolide]")
0.008
>>> recorded_measurement("CC(=O)Nc1nc2c(Oc3cc(-c4ccc(C(F)(F)F)cc4)ncn3)cccc2s1")
0.056
>>> recorded_measurement("COc1ccnc2[nH]cc(C(=O)C(=O)N3CCN(C(=O)c4ccccc4)C[C@H]3C)c12")
"−1.155"
>>> recorded_measurement("Cc1nc(C(=O)NCC(=O)O)c(O)c2ccc(Oc3ccccc3)cc12")
0.238
>>> recorded_measurement("CN(C)CCCCC(=O)Nc1ccc(NC(=S)NC(=O)c2ccc(C(C)(C)C)cc2)cc1")
"−1.429"
>>> recorded_measurement("CCO.N#CC(=C(/N)Sc1ccccc1N)/C(C#N)=C(\\N)Sc1ccccc1N")
"−0.790"
>>> recorded_measurement("CCC(COC(=O)c1cc(OC)c(OC)c(OC)c1)(c1ccccc1)N(C)C (stereo not shown)")
"−1.066"
>>> recorded_measurement("CO[C@H]1C[C@@H]2CC[C@@H](C)[C@@](O)(O2)C(=O)C(=O)N2CCCC[C@H]2C(=O)O[C@H]([C@H](C)C[C@@H]2CC[C@@H](OCCO)[C@H](OC)C2)CC(=O)[C@H](C)/C=C(\\C)[C@@H](O)[C@@H](OC)C(=O)[C@H](C)C[C@H](C)/C=C/C=C/C=C/1C [Everolimus (RAD001)]")
"−0.111"
>>> recorded_measurement("CCCCCCCCc1ccc(CCC(N)(CO)CO)cc1.Cl [Fingolimod (FTY720) HCl]")
"−1.304"
>>> recorded_measurement("COc1ccc(-n2nc(C(N)=O)c3c2C(=O)N(c2ccc(N4CCCCC4=O)cc2)CC3)cc1")
"−0.077"

* * *

- Test system: ENR+CD organoids (ISC to Paneth cell differentiation)
- assay overview: Primary screen: CCh-stimulated lysozyme secretion LYZ.S, 2.5-D 384-well ENR+CD organoid differentiation
- Format: cell-based, mouse
- assay setup: primary screen, dose 2.00 uM
property: Dose.FC.LYZ.S (log2 fold change)

>>> recorded_measurement("Cc1ccc(C(=O)N(CCCN)[C@@H](c2nc3cc(Cl)ccc3c(=O)n2Cc2ccccc2)C(C)C)cc1 [Ispinesib (SB-715992)]")
"−0.287"
>>> recorded_measurement("CC(C)c1onc(-c2c(Cl)cccc2Cl)c1COc1ccc(/C=C/c2cccc(C(=O)O)c2)c(Cl)c1 [GW4064]")
0.000
>>> recorded_measurement("CCN(CC)CC(=O)Nc1c(C)cccc1C [Lidocaine]")
"−0.038"

* * *

- System: ENR+CD organoids (ISC to Paneth cell differentiation)
- assay overview: Primary screen: CCh-stimulated lysozyme secretion LYZ.S, 2.5-D 384-well ENR+CD organoid differentiation
- Assay type: cell-based, mouse
- assay setup: primary screen, dose 2.00 uM
property: Dose.FC.LYZ.S

>>> recorded_measurement("COc1ccc2c(c1)c(CC(=O)N1CCOCC1)c(C)n2C(=O)c1ccc(Cl)cc1")
"0.017 log2 fold change"
>>> recorded_measurement("CC1C(=O)OC2C(O)C34C5CC(C(C)(C)C)C36C(OC(=O)C6O)OC4(C(=O)O5)C12O (centres unmarked) [Ginkgolide B]")
"0.033 log2 fold change"
>>> recorded_measurement("C=CC(=O)Nc1cccc(Nc2nc(Nc3ccc(OCCOC)cc3)ncc2F)c1")
"−0.206 log2 fold change"
>>> recorded_measurement("CS(=O)(=O)c1ccc(-c2cnc(N)c(C(=O)Nc3ccccc3)n2)cc1")
"−0.004 log2 fold change"
>>> recorded_measurement("COc1cc2ncnc(Nc3ccc(Cl)cc3F)c2cc1OC")
"−0.403 log2 fold change"
>>> recorded_measurement("O=C(Nc1cccc(C(F)(F)F)c1)Nc1cc(S(=O)(=O)NC2CC2)ccc1-c1ccsc1")
"0.055 log2 fold change"
>>> recorded_measurement("Cc1ccccc1C(C(=O)NC1CCCCC1)N(C(=O)Cn1ccnc1C)c1cccc(F)c1 (centres unmarked)")
"0.073 log2 fold change"
>>> recorded_measurement("Cl.Cl.Cl.O[C@@H](COc1cccc2ncccc12)CN1CCN([C@@H]2c3ccccc3[C@@H]3[C@H](c4ccccc42)C3(F)F)CC1 [Zosuquidar (LY335979) 3HCl]")
"0.129 log2 fold change"

* * *

- Test system: ENR+CD organoids (ISC to Paneth cell differentiation)
- assay overview: Primary screen: basal (non-stimulated) lysozyme secretion LYZ.NS, 2.5-D 384-well ENR+CD organoid differentiation
- Assay type: cell-based, mouse
- assay setup: primary screen, dose 2.00 uM, FC relative to plate median
Condition met if Dose.FC.LYZ.NS is below -0.01 log2 fold change. Condition not met if not; exact matches included in Condition not met.

>>> label("O=C1CC(=O)c2c(Cl)c(Cl)c(Cl)c(Cl)c21")
"Condition not met"
>>> label("CCC(=O)NCC[C@@H]1CCc2ccc3c(c21)CCO3")
"Condition met"
>>> label("CC(NC(=O)c1ccccc1/N=C/c1c(O)ccc2ccccc12)c1ccccc1 (centres unmarked)")
"Condition not met"
>>> label("CNC(=O)c1ccccc1Nc1nc(Nc2ccc(N3CCOCC3)cc2OC)ncc1Cl")
"Condition met"
>>> label("CCn1c(N)c(C(=O)NC)c(=O)c2ccc(C#C[C@@](C)(O)COC)nc21")
"Condition not met"
>>> label("CC(C)(C)c1cc(NC(=O)Nc2ccc(-c3cn4c(n3)sc3cc(OCCN5CCOCC5)ccc34)cc2)no1")
"Condition met"
>>> label("O=S(=O)(c1ccccc1)c1cnc2c(N3CCNCC3)cccc2c1")
"Condition not met"
>>> label("COc1cc2c(N3CCN(C(=O)Nc4ccc(OC(C)C)cc4)CC3)ncnc2cc1OCCCN1CCCCC1")
"Condition not met"

* * *

- Tested on: ENR+CD organoids (ISC to Paneth cell differentiation)
- assay overview: Primary screen: CCh-stimulated lysozyme secretion LYZ.S, 2.5-D 384-well ENR+CD organoid differentiation
- Type: cell-based, mouse
- assay setup: primary screen, dose 0.40 uM
Measured Dose.FC.LYZ.S, listed per entry.
property: Dose.FC.LYZ.S (log2 fold change)

>>> recorded_measurement("CC(C)OC(=O)C1=CN(C(=O)c2ccc(F)c(F)c2)CC(C)(C)c2c1[nH]c1ccccc21")
"−0.109"
>>> recorded_measurement("CC(C)N(CC[C@H](c1ccccc1)c1cc(CO)ccc1O)C(C)C [5-hydroxymethyl Tolterodine (PNU 200577, 5-HMT, 5-HM)]")
0.036
>>> recorded_measurement("CC1C(=O)OC2C(O)C34C5CC(C(C)(C)C)C36C(OC(=O)C6O)OC4(C(=O)O5)C12O (stereo not drawn) [Ginkgolide B]")
0.047
>>> recorded_measurement("CC(C)NC[C@@H](C(=O)N1CCN(c2ncnc3c2[C@H](C)C[C@H]3O)CC1)c1ccc(Cl)cc1")
0.087
>>> recorded_measurement("COc1ccccc1OCCNCC(O)COc1cccc2[nH]c3ccccc3c12 (stereo not drawn)")
"−0.079"
>>> recorded_measurement("CCCCNc1ncc(-c2ccc(CN3CCOCC3)cn2)c(NC2CCC(O)CC2)n1 (stereo not drawn)")
0.113

* * *

- Tested on: ENR+CD organoids (ISC to Paneth cell differentiation)
- assay overview: Primary screen: CCh-stimulated lysozyme secretion LYZ.S, 2.5-D 384-well ENR+CD organoid differentiation
- Type: cell-based, mouse
- assay setup: primary screen, 4th dose row of the treatment (10.00 uM by row order; dose not reprinted)
Measured Z.LYZ.S (standard z score), listed per entry.
property: Z.LYZ.S (standard z score)

>>> recorded_measurement("C[C@H](Oc1cc(-c2cnn(C3CCNCC3)c2)cnc1N)c1c(Cl)ccc(F)c1Cl [(S)-crizotinib]")
"−0.720"
>>> recorded_measurement("N#Cc1c(O)c2c(-c3ccc(-c4ccccc4O)cc3)csc2[nH]c1=O")
0.121
>>> recorded_measurement("O=C(O)c1ccc(N2C(=O)/C(=C\\c3ccc(-c4ccc([N+](=O)[O-])cc4)o3)C=C2c2ccccc2)cc1")
0.530
>>> recorded_measurement("O=C(O)C(Cc1ccccc1[N+](=O)[O-])=NNc1nc(-c2ccc(Cl)c(Cl)c2)cs1 (mixture of isomers)")
0.366
>>> recorded_measurement("CC(C)N(CC[C@H](c1ccccc1)c1cc(CO)ccc1O)C(C)C")
"−0.836"
>>> recorded_measurement("COc1cc2c(cc1O)CC[C@@H]1[C@@H]2CC[C@]2(C)[C@@H](O)CC[C@@H]12")
"−1.795"

Data credit: patent US20220323406A1
